Catalogue of binders with associated phage binding ELISA signal on anti-PSMA Fab
# SYSTEM_UNDER_TEST: T1, PSMA Fab (006 PSMA Fab)
# T1 construct: also called Anti-PSMA Fab; anti-PSMA Fab
# ASSAY: clonal phage ELISA on biotinylated PSMA Fab captured on neutravidin, blocking buffer alone, anti-M13 HRP detection;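 further: clonal phage were tested as crude supernatants, and the signal reflects phage still bound to the wells after washing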
ASSAY_METRIC: phage binding ELISA signal on anti-PSMA Fab

[
  {
    "BINDER": "EQVLCRPAWMCLGF [Phage-3650 (Peptide-180 library clone)]",
    "VALUE_OBSERVED": 1.5
  },
  {
    "BINDER": "IDRHCTPSWMCYGF [Phage-3658 (Peptide-180 library clone)]",
    "VALUE_OBSERVED": 1.5
  },
  {
    "BINDER": "LALACVPPWMCQGL [Phage-3654 (Peptide-180 library clone)]",
    "VALUE_OBSERVED": 1.5
  },
  {
    "BINDER": "VDVRCMPLWMCSGF [Phage-3645 (Peptide-180 library clone)]",
    "VALUE_OBSERVED": 1.52
  },
  {
    "BINDER": "VERMCEPLWMCAGL [Phage-3655 (Peptide-180 library clone)]",
    "VALUE_OBSERVED": 1.5
  },
  {
    "BINDER": "VQILCRPQWMCEGL [Phage-3653 (Peptide-180 library clone)]",
    "VALUE_OBSERVED": 1.5
  },
  {
    "BINDER": "MVPVCIPLWMCSGF [Phage-3647 (Peptide-180 library clone)]",
    "VALUE_OBSERVED": 1.51
  },
  {
    "BINDER": "PSAVCVPTWMCSGF [Phage-3652 (Peptide-180 library clone)]",
    "VALUE_OBSERVED": 1.5
  },
  {
    "BINDER": "TAVMCIPYWMCGGM [Phage-3646 (Peptide-180 library clone)]",
    "VALUE_OBSERVED": 1.52
  },
  {
    "BINDER": "SVVMCVPEWMCQGF [Phage-3651 (Peptide-180 library clone)]",
    "VALUE_OBSERVED": 1.5
  },
  {
    "BINDER": "PLVLCIPQWMCQAM [Phage-3648 (Peptide-180 library clone)]",
    "VALUE_OBSERVED": 1.51
  },
  {
    "BINDER": "ETSWCTPSWMCTGF [Phage-3656 (Peptide-180 library clone)]",
    "VALUE_OBSERVED": 1.5
  },
  {
    "BINDER": "SMIYCIPSWMCEGM [Phage-3657 (Peptide-180 library clone)]",
    "VALUE_OBSERVED": 1.5
  },
  {
    "BINDER": "LQTLCIPPWMCMGF [Phage-3649 (Peptide-180 library clone)]",
    "VALUE_OBSERVED": 1.5
  }
]

Measured values drawn from patent US20260242478A1 for this set.
